# experimental.system: UCHL5 (Homo sapiens, UniProt Q9Y5K5)
# Construct: (1-329); purchased Novus biochemicals NBP1-72315
# Sequence (Q9Y5K5 whole entry): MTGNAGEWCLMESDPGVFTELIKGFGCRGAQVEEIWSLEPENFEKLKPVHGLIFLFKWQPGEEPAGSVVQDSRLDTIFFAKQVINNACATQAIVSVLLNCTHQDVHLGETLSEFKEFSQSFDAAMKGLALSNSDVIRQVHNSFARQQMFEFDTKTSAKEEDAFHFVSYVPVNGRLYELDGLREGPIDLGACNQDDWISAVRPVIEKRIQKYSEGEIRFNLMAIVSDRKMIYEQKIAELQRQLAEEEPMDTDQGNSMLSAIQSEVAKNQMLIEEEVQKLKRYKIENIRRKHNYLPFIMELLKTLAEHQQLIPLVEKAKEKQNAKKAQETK
# protocol.notes: High-throughput screening, Ub-RhoMP, single dose 1.25 µM
# Type: biochemical
# reported.conditions: individual amine building block (plate NCN-5); read-out: BB %inhibition UCHL5
// reported inhibition at 1.25 µM per item
measure: inhibition at 1.25 µM (%)

[[record]]
compound = "N#CN1CCC[C@H](N)C1 [BB8]"
quantity_unit = "%"
quantitative_result = 4.6

[[record]]
compound = "N#CN1CC[C@H](CN)C1 [BB11]"
quantity_unit = "%"
quantitative_result = -7.1

[[record]]
compound = "N#CN1CC(N)C1 [BB5]"
quantity_unit = "%"
quantitative_result = 2.9

[[record]]
compound = "N#CN1CCC[C@@H](N)C1 [BB4]"
quantity_unit = "%"
quantitative_result = -6.7

[[record]]
compound = "N#CN1CC[C@H](C(=O)Nc2nc3c(s2)CNCC3)C1 [BB10]"
quantity_unit = "%"
quantitative_result = -11

[[record]]
compound = "N#CN1CC[C@H](N)C1 [BB3]"
quantity_unit = "%"
quantitative_result = -5.8

[[record]]
compound = "N#CN1C[C@@H](F)[C@@H](N)C1 [BB15]"
quantity_unit = "%"
quantitative_result = -6

[[record]]
compound = "N#CN1CCC(N)CC1 [BB2]"
quantity_unit = "%"
quantitative_result = -3.3

[[record]]
compound = "N#CN1CC[C@@H](N)C1 [BB1]"
quantity_unit = "%"
quantitative_result = -4.7

[[record]]
compound = "N#CN1CCC(n2cc(N)cn2)CC1 [BB16]"
quantity_unit = "%"
quantitative_result = -7.7

[[record]]
compound = "N#CN1C[C@@H]2C[C@H]1CN2 [BB12]"
quantity_unit = "%"
quantitative_result = -5.3

[[record]]
compound = "N#CN1C[C@H]2C[C@@H](N)C[C@H]2C1 [BB6]"
quantity_unit = "%"
quantitative_result = 2.5

[[record]]
compound = "N#CN1C[C@H](N)[C@@H](O)C1 [BB13]"
quantity_unit = "%"
quantitative_result = 0.225

[[record]]
compound = "N#CN1CC[C@@H](NC(=O)c2ccc(CN)cc2)C1 [BB9]"
quantity_unit = "%"
quantitative_result = -9.9

[[record]]
compound = "N#CN1CCC2(CCNC2)C1 (stereo not shown) [BB14]"
quantity_unit = "%"
quantitative_result = -1.4

[[record]]
compound = "N#CN1C[C@H]2C[C@H](N)C[C@H]2C1 [BB7]"
quantity_unit = "%"
quantitative_result = -1.4


---

// reported inhibition at 1.25 µM per item
# experimental.system: mUSP18 (Mus musculus, UniProt Q9WTV6)
# Construct: (46-368); His-tag (N); made in house
# Sequence (Q9WTV6 46-368): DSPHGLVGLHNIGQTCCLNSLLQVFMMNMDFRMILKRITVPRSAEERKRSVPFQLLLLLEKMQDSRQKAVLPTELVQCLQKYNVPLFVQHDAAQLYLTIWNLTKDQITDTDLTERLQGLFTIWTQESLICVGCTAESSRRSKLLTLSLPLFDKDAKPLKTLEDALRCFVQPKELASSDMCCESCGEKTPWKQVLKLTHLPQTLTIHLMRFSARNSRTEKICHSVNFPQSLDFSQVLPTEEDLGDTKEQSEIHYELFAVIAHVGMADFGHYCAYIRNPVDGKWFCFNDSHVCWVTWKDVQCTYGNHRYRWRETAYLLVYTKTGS
# protocol.notes: High-throughput screening, ISG15ct-RhoMP, single dose 1.25 µM
# Format: biochemical, murine
# reported.conditions: mUSP18 %inhibition; carboxylic acid (CA) with coupling reagents DIC/HOBT; read-out: %inh CA + DIC/HOBT
measure: inhibition at 1.25 µM (%)

[[record]]
compound = "O=C(O)c1cn(CC2CCOC2)nn1 (stereo not drawn) [CA318]"
experimental_system = "mUSP18 (Mus musculus, UniProt Q9WTV6)"
quantitative_result = -0.23

[[record]]
compound = "O=C(O)c1ccccc1OCc1ccncc1 [CA129]"
experimental_system = "mUSP18 (Mus musculus, UniProt Q9WTV6)"
quantitative_result = 10.2

[[record]]
compound = "O=C(O)C1(c2cccs2)CC1 [CA222]"
experimental_system = "mUSP18 (Mus musculus, UniProt Q9WTV6)"
quantitative_result = 3.8

[[record]]
compound = "Cc1ccc(C=CS(=O)(=O)N2CCC(C(=O)O)CC2)cc1 [CA426]"
experimental_system = "mUSP18 (Mus musculus, UniProt Q9WTV6)"
quantitative_result = -6.87

[[record]]
compound = "O=C(O)CCn1ccc(C(=O)N2CCCC2)n1 [CA406]"
experimental_system = "mUSP18 (Mus musculus, UniProt Q9WTV6)"
quantitative_result = -11.1

[[record]]
compound = "O=C(O)c1cnoc1-c1ccccc1C(F)(F)F [CA269]"
experimental_system = "mUSP18 (Mus musculus, UniProt Q9WTV6)"
quantitative_result = 5.54


---

# experimental.system: USP24 (Homo sapiens, UniProt Q9UPU5)
# Construct: (1-2620); His10; purchased Biotechne E-616
# Sequence (Q9UPU5 whole entry): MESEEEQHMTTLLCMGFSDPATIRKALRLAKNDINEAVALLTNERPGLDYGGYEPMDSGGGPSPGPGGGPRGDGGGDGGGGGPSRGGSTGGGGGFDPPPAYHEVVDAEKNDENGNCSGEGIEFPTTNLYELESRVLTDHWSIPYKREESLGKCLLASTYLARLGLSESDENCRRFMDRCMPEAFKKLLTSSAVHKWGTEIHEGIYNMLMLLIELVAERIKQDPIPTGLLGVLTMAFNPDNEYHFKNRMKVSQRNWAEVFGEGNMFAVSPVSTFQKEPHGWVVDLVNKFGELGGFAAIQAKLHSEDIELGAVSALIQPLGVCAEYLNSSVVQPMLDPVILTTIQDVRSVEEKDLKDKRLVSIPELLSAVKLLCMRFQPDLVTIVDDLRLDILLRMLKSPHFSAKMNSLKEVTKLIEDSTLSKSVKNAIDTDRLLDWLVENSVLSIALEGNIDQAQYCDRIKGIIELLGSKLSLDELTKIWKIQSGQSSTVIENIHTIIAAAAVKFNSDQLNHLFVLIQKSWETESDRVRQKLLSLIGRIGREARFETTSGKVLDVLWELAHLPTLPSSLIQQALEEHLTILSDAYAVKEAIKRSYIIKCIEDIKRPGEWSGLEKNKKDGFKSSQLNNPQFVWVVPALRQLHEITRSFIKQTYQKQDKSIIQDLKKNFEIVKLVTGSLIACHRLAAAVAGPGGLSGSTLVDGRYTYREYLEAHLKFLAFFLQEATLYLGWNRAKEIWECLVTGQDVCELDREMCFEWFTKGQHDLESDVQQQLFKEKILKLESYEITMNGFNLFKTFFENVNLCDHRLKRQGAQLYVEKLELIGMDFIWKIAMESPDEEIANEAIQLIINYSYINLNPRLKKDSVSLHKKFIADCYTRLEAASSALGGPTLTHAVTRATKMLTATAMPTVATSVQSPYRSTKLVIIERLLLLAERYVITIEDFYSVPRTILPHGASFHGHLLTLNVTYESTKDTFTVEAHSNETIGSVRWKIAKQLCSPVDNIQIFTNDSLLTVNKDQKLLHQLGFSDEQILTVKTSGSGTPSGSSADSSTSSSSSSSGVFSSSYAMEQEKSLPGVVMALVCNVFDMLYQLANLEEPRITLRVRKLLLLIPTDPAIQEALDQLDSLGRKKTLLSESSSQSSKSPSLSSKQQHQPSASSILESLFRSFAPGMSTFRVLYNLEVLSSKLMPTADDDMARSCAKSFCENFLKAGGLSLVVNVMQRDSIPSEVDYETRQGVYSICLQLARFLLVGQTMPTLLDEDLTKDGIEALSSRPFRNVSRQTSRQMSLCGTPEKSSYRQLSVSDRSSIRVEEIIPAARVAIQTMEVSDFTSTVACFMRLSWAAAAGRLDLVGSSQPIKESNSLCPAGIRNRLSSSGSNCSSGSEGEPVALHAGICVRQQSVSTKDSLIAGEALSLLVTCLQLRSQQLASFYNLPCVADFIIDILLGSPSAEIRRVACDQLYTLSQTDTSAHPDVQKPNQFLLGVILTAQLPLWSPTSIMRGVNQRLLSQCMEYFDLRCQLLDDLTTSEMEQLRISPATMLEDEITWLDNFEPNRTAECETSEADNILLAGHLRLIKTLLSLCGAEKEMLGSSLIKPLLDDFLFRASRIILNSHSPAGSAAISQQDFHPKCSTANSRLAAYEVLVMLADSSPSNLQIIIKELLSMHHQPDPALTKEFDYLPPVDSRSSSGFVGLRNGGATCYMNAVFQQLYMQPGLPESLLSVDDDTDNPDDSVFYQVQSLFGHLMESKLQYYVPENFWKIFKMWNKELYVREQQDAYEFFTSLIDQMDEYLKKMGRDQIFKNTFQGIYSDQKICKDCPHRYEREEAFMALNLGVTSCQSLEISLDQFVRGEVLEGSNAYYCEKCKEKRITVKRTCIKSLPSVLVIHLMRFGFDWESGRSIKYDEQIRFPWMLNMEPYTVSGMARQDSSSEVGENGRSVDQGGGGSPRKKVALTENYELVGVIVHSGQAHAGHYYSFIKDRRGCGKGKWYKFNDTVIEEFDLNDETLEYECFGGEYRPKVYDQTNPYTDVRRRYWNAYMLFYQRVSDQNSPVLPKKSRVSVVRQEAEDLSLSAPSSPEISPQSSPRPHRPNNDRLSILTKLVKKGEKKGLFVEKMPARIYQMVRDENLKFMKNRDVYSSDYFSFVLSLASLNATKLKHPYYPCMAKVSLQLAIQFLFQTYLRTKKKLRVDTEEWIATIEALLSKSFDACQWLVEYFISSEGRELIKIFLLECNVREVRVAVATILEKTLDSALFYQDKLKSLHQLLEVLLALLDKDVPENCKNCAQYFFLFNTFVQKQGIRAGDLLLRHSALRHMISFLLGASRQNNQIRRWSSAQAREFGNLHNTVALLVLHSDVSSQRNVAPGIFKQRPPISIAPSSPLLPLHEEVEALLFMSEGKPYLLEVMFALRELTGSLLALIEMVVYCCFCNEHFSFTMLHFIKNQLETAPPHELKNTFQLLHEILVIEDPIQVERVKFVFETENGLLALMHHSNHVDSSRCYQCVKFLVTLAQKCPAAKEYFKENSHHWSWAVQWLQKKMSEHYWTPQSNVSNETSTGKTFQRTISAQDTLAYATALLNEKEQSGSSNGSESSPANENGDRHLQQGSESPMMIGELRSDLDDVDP
# protocol.notes: High-throughput screening, Ub-RhoMP, single dose 1.25 µM
# Type: biochemical
# reported.conditions: individual amine building block (plate NCN-5); read-out: BB %inhibition USP24
measure: inhibition at 1.25 µM (%)

[[record]]
molecule = "N#CN1CC[C@@H](N)C1"
quantitative_result = 6.1

[[record]]
molecule = "N#CN1CC[C@H](N)C1"
quantitative_result = -1.4

[[record]]
molecule = "N#CN1CCC[C@H](N)C1"
quantitative_result = -0.279

[[record]]
molecule = "N#CN1CC[C@H](C(=O)Nc2nc3c(s2)CNCC3)C1"
quantitative_result = -1.8

[[record]]
molecule = "N#CN1CC[C@H](CN)C1"
quantitative_result = -6.5

[[record]]
molecule = "N#CN1CCC2(CCNC2)C1 (stereo not shown)"
quantitative_result = 3.8

[[record]]
molecule = "N#CN1CCC(n2cc(N)cn2)CC1"
quantitative_result = 9.2

[[record]]
molecule = "N#CN1CCC(N)CC1"
quantitative_result = 5.5

[[record]]
molecule = "N#CN1C[C@@H](F)[C@@H](N)C1"
quantitative_result = 5.6

[[record]]
molecule = "N#CN1CCC[C@@H](N)C1"
quantitative_result = 0.8

[[record]]
molecule = "N#CN1C[C@H](N)[C@@H](O)C1"
quantitative_result = 5.7

[[record]]
molecule = "N#CN1C[C@H]2C[C@@H](N)C[C@H]2C1"
quantitative_result = 3.1

[[record]]
molecule = "N#CN1C[C@H]2C[C@H](N)C[C@H]2C1"
quantitative_result = -3.9

[[record]]
molecule = "N#CN1CC(N)C1"
quantitative_result = 5

[[record]]
molecule = "N#CN1CC[C@@H](NC(=O)c2ccc(CN)cc2)C1"
quantitative_result = 0.33

[[record]]
molecule = "N#CN1C[C@@H]2C[C@H]1CN2"
quantitative_result = -3.7


---

# experimental.system: mUSP18 (Mus musculus)
# Construct: (46-368); His-tag (N); made in house
# protocol.notes: High-throughput screening, ISG15ct-RhoMP, single dose 1.25 µM
# Format: biochemical, murine
# reported.conditions: mUSP18 %inhibition; carboxylic acid (CA) building block alone; read-out: %inh CA only
measure: inhibition at 1.25 µM (%)

[[record]]
compound = "O=C(O)c1csc(-c2ccccn2)n1"
experimental_system = "mUSP18 (Mus musculus)"
quantitative_result = 9.48

[[record]]
compound = "Cc1ccc(N(CCC(=O)O)S(=O)(=O)c2ccccc2)cc1"
experimental_system = "mUSP18 (Mus musculus)"
quantitative_result = 18.6

[[record]]
compound = "Cn1nc(-c2cccnc2)cc1C(=O)O"
experimental_system = "mUSP18 (Mus musculus)"
quantitative_result = 8.72

[[record]]
compound = "O=C(O)c1ccc(CBr)cc1"
experimental_system = "mUSP18 (Mus musculus)"
quantitative_result = 0.19

[[record]]
compound = "CN1CCC(C(=O)O)CC1"
experimental_system = "mUSP18 (Mus musculus)"
quantitative_result = -3.93

[[record]]
compound = "O=C(O)c1ccc(S(=O)(=O)N2CCCCCC2)cc1"
experimental_system = "mUSP18 (Mus musculus)"
quantitative_result = -5.44

[[record]]
compound = "CC(=O)NCC(=O)O"
experimental_system = "mUSP18 (Mus musculus)"
quantitative_result = 0.89

[[record]]
compound = "O=C(O)C1CCN1C1CCCC1 (stereo not shown)"
experimental_system = "mUSP18 (Mus musculus)"
quantitative_result = 0.37

[[record]]
compound = "O=C(O)c1ccc(-c2cccs2)[nH]c1=O"
experimental_system = "mUSP18 (Mus musculus)"
quantitative_result = 9.12

[[record]]
compound = "O=C(O)c1cc(-n2ccnn2)ccc1F"
experimental_system = "mUSP18 (Mus musculus)"
quantitative_result = 11.2

[[record]]
compound = "O=C(O)c1csc(-c2ccc(Br)s2)n1"
experimental_system = "mUSP18 (Mus musculus)"
quantitative_result = 6.43

[[record]]
compound = "Cc1onc(-c2ccncc2)c1C(=O)O"
experimental_system = "mUSP18 (Mus musculus)"
quantitative_result = 7.23

[[record]]
compound = "O=C(O)C1CCN(C(=O)c2ccccn2)CC1"
experimental_system = "mUSP18 (Mus musculus)"
quantitative_result = 6.36

